- Tested on: pembrolizumab
- Method: Viscosity of pembrolizumab test formulations (mVROC viscometer)
- Assay type: physicochemical
- Particulars: 10 mM histidine buffer, 200 mg/mL pembrolizumab, 0.2 M excipient, pH 5.5
- Method: Pembrolizumab formulations comprised the following: 10 mM histidine buffer, pembrolizumab at a concentration of 200 mg/mL, and the test excipient (pegylated excipient of the invention, as described herein) at a concentration of 200 mM, pH adjusted to pH 5.5. Pembrolizumab formulations without excipients consisted of 200 mg/mL pembrolizumab in 10 mM histidine buffer at pH 5.5. […]
Parameter: Viscosity Average (mPa-s)
The response must be a number in mPa-s with no trailing unit.

compound O=C(O)[C@H](Cc1c[nH]cn1)N(CCOCCO)CCOCCO , Viscosity Average observed: 23.18

compound COCCOCCN(CCOCCOC)[C@@H](CCCCN)C(=O)O , Viscosity Average observed: 21.43

compound COCCOCCOCCOCC(=O)N[C@@H](CCCNC(=N)N)C(=O)O , Viscosity Average observed: 22.96

compound COCCOCCOCCN[C@@H](Cc1c[nH]cn1)C(=O)O , Viscosity Average observed: 26.71

compound COCCOCCN(C(=O)COCCOC)[C@@H](CCCNC(=N)N)C(=O)O , Viscosity Average observed: 21.15
